Below, each entry is listed alongside its reported OD450 nm.
target: T1, monkey GPC3-His protein (monkey); experiment: ELISA, monkey GPC3-His coated; antibody 0.02 nM
T1 construct: Bought protein; also called monkey GPC3 protein
Give your answer as a number; write no unit.

Solved cases below.
{"binder": "hAb001H2L1 (antibody, human IgG1, V domains shown, Humanized F2.169.2, H2+L1) VH: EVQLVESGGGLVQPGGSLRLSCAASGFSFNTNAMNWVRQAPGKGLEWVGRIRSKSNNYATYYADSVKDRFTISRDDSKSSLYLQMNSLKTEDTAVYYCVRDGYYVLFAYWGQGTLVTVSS VL: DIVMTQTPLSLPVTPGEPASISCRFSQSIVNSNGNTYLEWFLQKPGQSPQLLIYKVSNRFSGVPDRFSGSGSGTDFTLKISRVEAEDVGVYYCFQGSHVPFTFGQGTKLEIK", "OD450 nm": 1.05}
{"binder": "hAb001H1aL1a (antibody, human IgG1, V domains shown, Humanized F2.169.2, H1a+L1a) VH: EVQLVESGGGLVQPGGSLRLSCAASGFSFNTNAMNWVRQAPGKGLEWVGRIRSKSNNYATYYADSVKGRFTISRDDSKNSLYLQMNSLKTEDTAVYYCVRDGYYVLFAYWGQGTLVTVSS VL: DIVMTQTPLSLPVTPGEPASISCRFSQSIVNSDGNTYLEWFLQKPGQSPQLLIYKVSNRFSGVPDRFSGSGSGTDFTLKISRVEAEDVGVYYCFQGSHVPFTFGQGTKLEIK", "OD450 nm": 0.437}
{"binder": "hAb007LH2L1b (antibody, human IgG1, V domains shown, Humanized F3.81.19, H2+L1b) VH: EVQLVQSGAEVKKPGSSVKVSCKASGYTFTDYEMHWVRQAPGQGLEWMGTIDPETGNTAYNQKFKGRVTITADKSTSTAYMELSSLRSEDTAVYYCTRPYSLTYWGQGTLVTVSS VL: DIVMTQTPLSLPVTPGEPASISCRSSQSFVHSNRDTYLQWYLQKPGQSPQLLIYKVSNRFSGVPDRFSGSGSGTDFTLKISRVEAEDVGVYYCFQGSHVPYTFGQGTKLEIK", "OD450 nm": 0.32}
{"binder": "hAb001H2L1a (antibody, human IgG1, V domains shown, Humanized F2.169.2, H2+L1a) VH: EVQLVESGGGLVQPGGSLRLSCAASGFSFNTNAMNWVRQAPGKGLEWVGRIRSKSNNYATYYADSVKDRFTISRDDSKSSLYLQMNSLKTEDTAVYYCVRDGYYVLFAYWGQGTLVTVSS VL: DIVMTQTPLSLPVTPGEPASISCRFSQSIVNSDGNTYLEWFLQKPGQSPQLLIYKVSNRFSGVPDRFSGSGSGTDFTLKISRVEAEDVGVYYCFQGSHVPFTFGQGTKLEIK", "OD450 nm": 0.34}

// switching to the query binder
Request: Record request: OD450 nm value, item hAb003LH2L1b (antibody, human IgG1, V domains shown, Humanized F2.154.1, H2+L1b) VH: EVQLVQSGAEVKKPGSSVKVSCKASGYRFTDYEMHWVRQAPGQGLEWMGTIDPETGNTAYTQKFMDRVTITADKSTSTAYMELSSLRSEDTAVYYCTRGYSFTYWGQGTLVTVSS VL: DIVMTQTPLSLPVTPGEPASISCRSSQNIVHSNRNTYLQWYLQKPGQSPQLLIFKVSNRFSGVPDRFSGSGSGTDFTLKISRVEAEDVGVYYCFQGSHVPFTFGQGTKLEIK
Result: 1.1

Taken from patent US20260116991A1.
